# Tested on: vanilloid receptor 1 (VR1/TRPV1 receptor) (Homo sapiens)
# Construct: expressed in transfected cells; host or cells: CHO K1 cells (ECACC), stably transfected
# Sequence (Q8NER1 whole entry): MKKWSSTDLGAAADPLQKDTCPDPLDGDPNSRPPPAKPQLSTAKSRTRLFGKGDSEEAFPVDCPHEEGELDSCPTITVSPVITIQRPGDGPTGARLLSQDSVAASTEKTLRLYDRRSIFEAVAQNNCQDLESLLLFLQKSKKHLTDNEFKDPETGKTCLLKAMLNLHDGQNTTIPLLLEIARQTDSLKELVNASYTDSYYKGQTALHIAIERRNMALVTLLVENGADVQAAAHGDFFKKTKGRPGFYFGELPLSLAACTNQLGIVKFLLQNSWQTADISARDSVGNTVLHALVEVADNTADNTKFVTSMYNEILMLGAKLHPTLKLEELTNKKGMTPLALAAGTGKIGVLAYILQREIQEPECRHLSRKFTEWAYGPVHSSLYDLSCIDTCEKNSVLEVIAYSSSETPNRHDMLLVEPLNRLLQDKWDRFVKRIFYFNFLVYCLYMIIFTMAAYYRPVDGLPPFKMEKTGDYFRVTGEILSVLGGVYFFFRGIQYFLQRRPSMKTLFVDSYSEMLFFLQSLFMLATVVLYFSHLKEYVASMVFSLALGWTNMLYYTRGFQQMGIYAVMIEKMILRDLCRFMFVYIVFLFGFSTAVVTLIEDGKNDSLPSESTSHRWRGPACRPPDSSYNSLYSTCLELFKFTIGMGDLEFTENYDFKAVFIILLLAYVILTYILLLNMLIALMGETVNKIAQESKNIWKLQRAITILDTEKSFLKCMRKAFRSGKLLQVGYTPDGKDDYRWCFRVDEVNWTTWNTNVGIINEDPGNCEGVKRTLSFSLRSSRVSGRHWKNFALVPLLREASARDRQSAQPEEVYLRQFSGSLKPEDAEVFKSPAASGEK
# Assay explanation: Functional testing on vanilloid receptor 1: FLIPR Ca2+ influx assay against capsaicin (Cap) in transfected CHO K1 cells (pharmacological method II); note: 100 nM capsaicin
# Type: cell-based
# Condition label: read-out: (f) Ki (human being) [nM] Cap
# Source text: […]
Experimental readout: Ki (nM)

Worked set:
| Molecule | Obs value |
| --- | --- |
| COc1cccc(-n2nc(C(F)(F)F)cc2CNC(=O)Nc2ccc(CO)c(F)c2)c1 [A67] | 43 |
| O=C(Cc1ccc(CO)c(F)c1)NCc1cc(C(F)(F)F)nn1-c1cccc(Cl)c1 [A30] | 21 |
| COc1cccc(-n2nc(C(F)(F)F)cc2CNC(=O)C(C)c2ccc(COCCO)c(F)c2)c1 (stereo not drawn) [A114] | 46 |
| O=C(NCc1cc(C(F)(F)F)nn1-c1ccccc1F)Nc1ccc(CO)c(F)c1 [A61] | 26 |

[1] COCCOCc1ccc(C(C)C(=O)NCc2cc(C(F)(F)F)nn2-c2ccc(F)c(Cl)c2)cc1F (stereo not drawn) [A112]
[2] Cc1ccc(-n2nc(C(F)(F)F)cc2CNC(=O)Nc2ccc(CO)c(F)c2)cc1 [A71]
[3] CC(C(=O)NCc1cc(C(F)(F)F)nn1-c1cccc(Cl)c1)c1ccc(C(O)CO)cc1 (stereo not drawn) [A146]
[4] O=C(NCc1cc(C(F)(F)F)nn1-c1ccc(F)cc1)Nc1ccc(CO)c(F)c1 [A63]
Q: List items by Ki in falling order. Answer format: the labels, in the requested order.
Result: 1, 2, 3, 4
(1: 79 nM, 2: 42 nM, 3: 13 nM, 4: 9 nM)

Source listed as patent EP2776398B1.
